B1: CAMK2D (parent)
chain: LLKHPNIVRLHDSISEEGFHYLVF

Variants of: B1
assay.method.text: protein stability index of a GFP-peptide fusion (GPS, HEK-293T) (PSI 1-6); higher = more stable;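 also: lentivirally expressed fusions sorted by FACS into six bins by GFP to DsRed ratio, PSI derived from sequencing read proportions per bin multiplied by bin number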
measurement.setup: c terminus: a fixed tail appended
experimental.endpoint: protein stability index
Could you respond with only the numeric value?

entry_sequence="LLKHPNIVRLSDSISEEGFHYLVF [H11S]" experimental_endpoint="protein stability index" val=1.8

Read the next record carefully.
Documented protein stability index of LLKHPNIVRLHDSISEEGIHYLVF [F19I] : 2.73
